# SYSTEM: Human Factor D (Homo sapiens (Human), UniProt P00746)
# Sequence (P00746 26-253): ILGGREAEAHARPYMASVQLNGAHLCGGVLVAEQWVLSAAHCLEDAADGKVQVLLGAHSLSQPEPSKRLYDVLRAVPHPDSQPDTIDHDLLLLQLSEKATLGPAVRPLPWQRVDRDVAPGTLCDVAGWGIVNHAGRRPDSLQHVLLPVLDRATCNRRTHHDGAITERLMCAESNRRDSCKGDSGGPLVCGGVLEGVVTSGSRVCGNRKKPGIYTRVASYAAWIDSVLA
# METHOD_SUMMARY: Human Factor D Assay
# Type: biochemical
# TEST_SETTINGS: Human Factor D, Table 3; read-out: IC50
PARAMETER: IC50

Record CC(=O)c1nn(CC(=O)N2CC[C@H]2C(=O)Nc2cccc(C)n2)c2ccc(-c3ccc(C)nc3)cc12 [Compound 588] . Reported IC50: > 10 µM

Record CC(=O)c1nn(CC(=O)N2C[C@H](F)C[C@H]2C(=O)Nc2cccc(Br)n2)c2ccc(-c3cn[nH]c3)cc12 [Compound 707] , field IC50: < 1 µM

IC50 in this record for CC(=O)c1nn(CC(=O)N2CC[C@H]2C(=O)Nc2cccc(C)n2)c2ccc(-c3ccc4ccccc4c3)cc12 [Compound 587] : > 10 µM

The value of IC50 measured for the compound CC(=O)c1nn(CC(=O)N2C[C@H](F)C[C@H]2C(=O)Nc2cccc(Br)n2)c2c(C)cc(-c3cnc(C)nc3)cc12 [Compound 608] turned out to be < 1 µM

----------
Give IC50 for every item shown.
# SYSTEM: Human Factor D (Homo sapiens (Human), UniProt P00746)
# METHOD_SUMMARY: Human Factor D Assay
# Assay type: biochemical
# TEST_SETTINGS: Human Factor D 80 nM, substrate Z-L-Lys-SBzl; read-out: IC50

Query NC(=O)c1nn(CC(=O)N2[C@@H]3C[C@@H]3C[C@H]2C(=O)Nc2cccc(OC(F)(F)F)c2F)c2ccc(-c3cncnc3)cc12 [Compound 8] yields IC50 of < 1 µM

Notebook: CC(=O)c1cn(CC(=O)N2C[C@H](F)C[C@H]2C(=O)Nc2cccc(Cl)n2)c2ccc(-c3cnc(C)nc3)cc12 [Compound 137] , IC50 read as < 1 µM

The value of IC50 measured for the compound CC(=O)c1cn(CC(=O)N2C[C@H](F)C[C@H]2C(=O)NCc2cccc(Cl)c2)c2ccc(-c3ccnnc3)cc12 [Compound 44] turned out to be < 1 µM

Measured IC50, CC(=O)c1cn(CC(=O)N2C[C@H](F)C[C@H]2C(=O)Nc2ccnc(=O)n2C)c2ccc(-c3ccnnc3)cc12 [Compound 173] : > 10 µM

Reported IC50 ( NC(=O)c1nn(CC(=O)N2C[C@H](F)C[C@H]2C(=O)NC2CCCc3nc(-c4ccc(F)cc4)sc32)c2ccc(-c3ccnnc3)cc12 (stereo partly shown) [Compound 107] ) = > 10 µM

Quick note, IC50 for CC(=O)c1cn(CC(=O)N2C[C@H](F)C[C@H]2C(=O)N[C@H]2CCCC[C@@H]2OCc2ccccc2)c2ccc(-c3ccnnc3)cc12 [Compound 74] landed at > 10 µM

Item: COc1cc(C)cc2c1OCCC2NC(=O)[C@@H]1C[C@@H](F)CN1C(=O)Cn1cc(C(C)=O)c2cc(-c3ccnnc3)ccc21 (stereo partly shown) [Compound 123] | IC50: > 10 µM

Please fill in: IC50 reported for NC(=O)c1nn(CC(=O)N2C[C@H](F)C[C@H]2C(=O)Nc2cccc(Cl)c2C(F)(F)F)c2ccc(-c3ccnnc3)cc12 [Compound 93] = > 10 µM

Record summary for COCCNc1ncc(-c2ccc3c(c2)c(C(C)=O)cn3CC(=O)N2C[C@H](F)C[C@H]2C(=O)Nc2cccc(-c3ccccc3Cl)c2F)cn1 [Compound 187] : reported IC50 = < 1 µM

// sample CC(=O)c1cn(CC(=O)N2C[C@H](F)C[C@H]2C(=O)Nc2nc(-c3ccc4c(c3)CCCC4)cs2)c2ccc(-c3ccnnc3)cc12 [Compound 54] , its IC50 was > 10 µM

The recorded IC50 for entry NC(=O)c1nn(CC(=O)N2C[C@H](F)C[C@H]2C(=O)Nc2cccc(Br)n2)c2ccc(-c3ccnnc3)cc12 [Compound 25] equals < 1 µM

Data point: CC(=O)c1cn(CC(=O)N2C[C@H](F)C[C@H]2C(=O)Nc2ccc3c(c2)OC(C)(C)C3)c2ccc(-c3ccnnc3)cc12 [Compound 75] ; IC50 = < 1 µM

The measured IC50 associated with NC(=O)c1nn(CC(=O)N2C[C@H](F)C[C@H]2C(=O)Nc2cccc(-c3ccccc3Cl)c2F)c2ccc(-c3cncnc3)cc12 [Compound 2] reads < 1 µM

Measured IC50 of CC(=O)c1cn(CC(=O)N2C[C@H](F)C[C@H]2C(=O)Nc2cccc(-c3cc(F)c(F)cc3Cl)c2F)c2ccc(-c3cnc(C)nc3)cc12 [Compound 150] : < 1 µM

Looking up CC(=O)c1cn(CC(=O)N2C[C@H](F)C[C@H]2C(=O)N[C@@H]2CCC[C@H]2O)c2ccc(-c3ccnnc3)cc12 [Compound 143] , I found its IC50 recorded as > 10 µM

get_value(item= CC(=O)c1cn(CC(=O)N2C[C@H](F)C[C@H]2C(=O)Nc2ccccc2N2CCOC2=O)c2ccc(-c3ccnnc3)cc12 [Compound 64] , readout=IC50) returns > 10 µM

Please fill in: IC50 reported for NC(=O)c1nn(CC(=O)N2C[C@H](F)C[C@H]2C(=O)Nc2cccc(Cl)c2-n2cncn2)c2ccc(-c3ccnnc3)cc12 [Compound 96] = > 10 µM

In plain terms, CC(=O)c1cn(CC(=O)N2C[C@H](F)C[C@H]2C(=O)Nc2noc3cc(C(F)(F)F)ccc23)c2ccc(-c3ccnnc3)cc12 [Compound 42] has a documented IC50 of > 10 µM

Notebook: NC(=O)c1nn(CC(=O)N2C[C@H](F)C[C@H]2C(=O)Nc2nc(-c3ccc4c(c3)CCCC4)cs2)c2ccc(-c3ccnnc3)cc12 [Compound 55] , IC50 read as > 10 µM

Please fill in: IC50 reported for CC(=O)c1cn(CC(=O)N2[C@@H]3C[C@@H]3C[C@H]2C(=O)Nc2cccc(-c3ccccc3Cl)c2F)c2ccc(-c3cnc(C)nc3)cc12 [Compound 133] = < 1 µM

Documented IC50 of NC(=O)c1nn(CC(=O)N2C[C@H](F)C[C@H]2C(=O)Nc2cccc(O)n2)c2ccc(-c3ccnnc3)cc12 [Compound 174] : > 10 µM

Note to self: IC50 recorded for CC(=O)c1cn(CC(=O)N2C[C@H](F)C[C@H]2C(=O)Nc2n[nH]c(C)c2-c2ccccc2)c2ccc(-c3ccnnc3)cc12 [Compound 169] was < 1 µM

compound CC1(C)Cc2ccc(NC(=O)[C@@H]3C[C@@H](F)CN3C(=O)Cn3nc(C(N)=O)c4cc(-c5ccnnc5)ccc43)cc2O1 [Compound 76] , IC50 observed: < 1 µM

So, CC(=O)c1cn(CC(=O)N2C[C@H](F)C[C@H]2C(=O)Nc2cccc(Br)n2)c2ccc(-c3cnc(C#N)nc3)cc12 [Compound 82] ? Its IC50 was < 1 µM

Per the record, NC(=O)c1nn(CC(=O)N2C[C@H](F)C[C@H]2C(=O)NCc2ccncc2)c2ccc(-c3ccnnc3)cc12 [Compound 157] has IC50 of > 10 µM
